Taken from ChEMBL document CHEMBL1139597.

Molecular target: Nitric oxide synthase 3 (Homo sapiens)
Sequence (P29474 whole entry): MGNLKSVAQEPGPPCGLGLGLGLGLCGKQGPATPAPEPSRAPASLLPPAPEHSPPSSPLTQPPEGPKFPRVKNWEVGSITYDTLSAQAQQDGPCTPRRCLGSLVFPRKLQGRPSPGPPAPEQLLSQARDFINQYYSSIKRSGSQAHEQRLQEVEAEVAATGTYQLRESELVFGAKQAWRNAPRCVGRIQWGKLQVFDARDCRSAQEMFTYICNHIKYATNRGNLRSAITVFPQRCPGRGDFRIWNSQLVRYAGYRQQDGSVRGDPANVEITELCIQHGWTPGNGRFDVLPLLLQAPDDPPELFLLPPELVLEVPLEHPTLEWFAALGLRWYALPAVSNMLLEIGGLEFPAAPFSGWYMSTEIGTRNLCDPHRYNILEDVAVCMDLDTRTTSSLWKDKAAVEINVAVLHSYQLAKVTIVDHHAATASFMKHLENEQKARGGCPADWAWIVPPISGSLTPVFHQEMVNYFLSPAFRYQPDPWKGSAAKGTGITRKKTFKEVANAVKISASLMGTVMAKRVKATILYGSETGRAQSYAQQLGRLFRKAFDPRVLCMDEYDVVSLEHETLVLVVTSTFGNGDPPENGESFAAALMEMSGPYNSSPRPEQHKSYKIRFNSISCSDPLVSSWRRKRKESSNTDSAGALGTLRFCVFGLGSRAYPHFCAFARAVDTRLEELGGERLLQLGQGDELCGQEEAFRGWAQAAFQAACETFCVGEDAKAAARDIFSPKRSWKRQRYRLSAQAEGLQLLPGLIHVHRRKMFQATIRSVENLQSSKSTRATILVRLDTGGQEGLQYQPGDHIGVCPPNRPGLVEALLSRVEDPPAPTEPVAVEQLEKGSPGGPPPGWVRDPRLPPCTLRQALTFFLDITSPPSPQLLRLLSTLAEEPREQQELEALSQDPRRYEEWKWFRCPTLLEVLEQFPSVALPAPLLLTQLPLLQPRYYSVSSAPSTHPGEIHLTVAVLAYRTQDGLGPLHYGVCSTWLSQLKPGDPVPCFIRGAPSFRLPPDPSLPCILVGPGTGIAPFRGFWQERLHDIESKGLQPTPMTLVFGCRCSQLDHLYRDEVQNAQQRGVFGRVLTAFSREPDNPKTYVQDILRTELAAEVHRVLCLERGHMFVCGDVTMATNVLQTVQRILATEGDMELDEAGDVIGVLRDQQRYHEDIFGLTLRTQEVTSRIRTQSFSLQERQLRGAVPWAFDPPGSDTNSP
Assay: Inhibitory concentration against human endothelial nitric oxide synthase expressed in Sf-9 cells
assayEndpoint: IC50

Lab note: CSC(=N)NCCC[C@H](N)C(=O)N[C@@H](Cc1ccccc1)C(=O)O gave IC50 of > 1 mM
